Test: Acute toxicity (LD50 /24 hours)
Settings: in vivo, po
recorded_endpoint: LD50 at 24 h (mg/kg)
Number only, in mg/kg; omit the unit.

Ask | Please indicate LD50 at 24 h recorded for O=S1(=O)NC=Nc2cc(C(F)(F)F)c(F)cc21 [Example 1]
Reply | 3230
